Exercise: state measured Kd for each of the compounds provided.
Species: Mus musculus
Assay: Dissociation constant of SR-141716A determined in the presence using mouse vas deferens.
Supply the numeric figure in nM, leaving out any unit text.

Q. Would you mind telling me what Kd value was observed for CCCCCc1cc2c(c3c1CCCO3)C1CC=CC[C@H]1C(C)(C)O2 (stereo not given in full) ?
A. 2.97

Q. Kd for CCCCCc1cc2c(c3c1CCCO3)C1C[C@@H](O)CC[C@H]1C(C)(C)O2 (stereo not given in full) ?
A. 1.67

Q. Give its Kd value. Item: CCCCCc1cc2c(c3c1CCCO3)C1CC(=O)CC[C@H]1C(C)(C)O2 (stereo not given in full)
A. 1.72

Q. Can you look up the measured Kd of CCCCCc1cc2c(c3c1CCCO3)C1C[C@H](O)CC[C@H]1C(C)(C)O2 (stereo not given in full) for me?
A. 1.67

Q. Any idea what its Kd is? The compound is C=C1CC[C@@H]2C(C1)c1c(cc(CCCCC)c3c1OCCC3)OC2(C)C (stereo not given in full)
A. 2.49

---

Kindly supply the reported Ki values for the records listed here.
Express it in nM; write the number only.

Q. Hi! What's the reported Ki for CCCCCc1cc2c(c3c1CCCO3)C1CC(=O)CC[C@H]1C(C)(C)O2 (some centres not stated) on Cannabinoid receptor 1 (Rattus norvegicus, UniProt P20272)?
A. 90

Q. Form: Entry = CCCCCc1cc2c(c3c1CCCO3)C1CC=CC[C@H]1C(C)(C)O2 (some centres not stated) | System = Cannabinoid receptor 1 (Rattus norvegicus, UniProt P20272) | Ki = ____
A. 364
